Data provenance is PubChem BioAssay (Tox21).

Assay: qHTS assay to identify small molecule antagonists of the progesterone receptor (PR) signaling pathway - cell viability counter screen (AID 1346798); further: nearly all actives have a fitted effect of over 50% in size
Conditions: PR-UAS-bla HEK293T viability, CellTiter-Glo luminescence, 16 h; series mostly up to 92.4 µM
Excerpt: National Center for Advancing Translational Sciences [NCATS] NIH Chemical Genomics Center [NCGC] U.S. Environmental Protection Agency [EPA] National Institutes of Environmental Health Sciences [NIEHS] National Toxicology Program [NTP] U.S. Food and Drug Administration [FDA] Progesterone receptor (PR), a nuclear hormone receptor, plays an important role in development, metabolic homeostasis and reproduction. It is activated by the steroid hormone progesterone. […]
Records with an inconclusive call do not appear. Active and inactive are the calls of the source. The call rests on the fitted dose curve; in most records, active means well fitted cell-killing curve with a large enough effect in the repeat runs; inconclusive means weak or mixed curves, or effect the other way; inactive means no such curve, though single readings can be large or run the other way.
Please reply with one of these outcomes: active, inactive

Here's what some known entries look like.
>>> class_label("Nc1cccc2ccccc12")
"inactive"
>>> class_label("NCCc1cc(O)c(O)cc1O")
"inactive"
>>> class_label("Cc1ncc(C[n+]2csc(CCO)c2C)c(N)n1")
"inactive"
>>> class_label("ClCc1ccccc1Cl")
"inactive"
>>> class_label("Nc1ccc2c(c1)Cc1ccccc1-2")
"inactive"
>>> class_label("NC(=S)c1c(Cl)cccc1Cl")
"inactive"
>>> class_label("N#CC(C#N)=C(C#N)C#N")
"inactive"
>>> class_label("O=C(O)C(Cl)(Cl)Br")
"inactive"
>>> class_label("CCC(C)Cl (centres undefined)")
"inactive"
>>> class_label("CCCCC1C(=O)NC(=O)N(C2CCCCC2)C1=O (centres undefined)")
"inactive"

What classification did `O=C(Cc1ccccc1)c1ccccc1` end up with in this test?
inactive

Continue with `CC(C)(C)CC(C)(C)c1ccc(O)cc1`
active

* * *

experiment: qHTS assay to identify small molecule agonists of the hypoxia (HIF-1) signaling pathway (AID 1224846); conditions: HRE-bla ME-180 cells, beta-lactamase ratio, 17 h; series mostly up to 76.8 µM; further: on the % scale 0 is the no-effect control and ±100 the full control effect
Inconclusive results are not listed. The source made the active and inactive calls. The call rests on the fitted dose curve; in most records, active means well fitted activation curve with a large enough effect in the signal ratio in the repeat runs (not every such curve was filed as active); inconclusive means weak or mixed curves; inactive means flat fitted curve, though single readings scatter; the % refers to the signal ratio.
readout-type: activation

Check out these entries, answers already filled in.
>>> reported_measurement("Nc1c(Br)cc(Br)c2c1C(=O)c1ccccc1C2=O")
"0.237% [at 15.8 µM] (inactive)"
>>> reported_measurement("CC(C)(C)c1ccc(CCOc2ncnc3ccccc23)cc1")
"inactive"
>>> reported_measurement("CCN(C(C)=O)c1cccc(-c2ccnc3c(C#N)cnn23)c1")
"inactive"
>>> reported_measurement("C[C@@H]1C[C@@H]([C@H](O)CC2CC(=O)NC(=O)C2)C(=O)[C@@H](C)C1")
"inactive"
>>> reported_measurement("C1CCNCC1")
"inactive"

May I ask what activation has been recorded for CCCSP(=S)(OCC)Oc1ccc(SC)cc1 (stereo unspecified) ?
inactive

* * *

assay: qHTS assay to identify small molecule agonists of the constitutive androstane receptor (CAR) signaling pathway - cell viability counter screen (AID 1224836); conditions: HepG2-CYP2B6-hCAR viability, CellTiter-Fluor, 23 h, PK11195 added to every well; series mostly up to 92.4 µM; further: nearly all actives have a fitted effect of over 45% in size
Inconclusive results are not listed. Active and inactive are the calls of the source. The call rests on the fitted dose curve; in most records, active means well fitted cell-killing curve with a large enough effect in the repeat runs; inconclusive means weak or mixed curves, or effect the other way; inactive means flat fitted curve, though single readings scatter.
Please reply with one of these outcomes: TRUE (active), FALSE (inactive)

>>> class_label("C=CCOCC1CO1 (centres undefined)")
"FALSE"
>>> class_label("COc1cc(CC(C)N)c(OC)cc1Br (centres undefined)")
"FALSE"
>>> class_label("C#C[C@]1(O)CC[C@H]2[C@@H]3CCC4=CC(=O)CCC4=C3C=C[C@@]21CC")
"FALSE"

What classification did `Cc1nc(N(C)C)nc(OC(=O)N(C)C)c1C` end up with in this test?
FALSE

Continue with `O=C(O)C(Cl)(Cl)Br`
FALSE

Continue with `C[C@H](N)[C@H](O)c1ccc(O)c(O)c1`
FALSE

Continue with `CCC(C)(C)c1ccc(O)c(C(C)(C)CC)c1`
TRUE

Continue with `OC[P+](CO)(CO)CO`
FALSE

Continue with `NP(N)(=O)NC(=O)c1ccc(F)cc1`
FALSE

Continue with CCC1CCC(=O)O1 (centres undefined)
FALSE

* * *

assay: qHTS assay for small molecule agonists of the antioxidant response element (ARE) signaling pathway - cell viability counter screen (AID 743203); conditions: ARE-bla HepG2 viability, CellTiter-Glo luminescence, 16 h; series mostly up to 73.3 µM; further: on the % scale 0 is the no-effect control and ±100 the full control effect; nearly all actives have a fitted effect of over 55% in size
Records with an inconclusive call do not appear. The source made the active and inactive calls. Calls follow the shape of the full dose curve.
Please reply with one of these outcomes: YES for active, NO for inactive

Here's what some known entries look like.
>>> class_label("CCC1(CC)C(=O)NC(=O)NC1=O")
"NO"
>>> class_label("CC(C)(C)OOC(C)(C)CCC(C)(C)OOC(C)(C)C")
"NO"
>>> class_label("CC(=O)OC(c1ccccc1)C(Cl)(Cl)Cl (stereo not drawn)")
"NO"
>>> class_label("CC(C)C1(C)N=C(c2ncccc2C(=O)O)NC1=O (stereo not drawn)")
"NO"
>>> class_label("c1ccc2c(c1)sc1ccccc12")
"NO"

Let us examine a further case.
What classification did `CN1CC[C@]23c4c5ccc(O)c4O[C@H]2[C@@H](O)CC[C@H]3[C@H]1C5` end up with in this test?
NO

* * *

target: Thyrotropin receptor (Homo sapiens) (UniProt P16473); experiment: qHTS assay to identify small molecule antagonists of the thyroid stimulating hormone receptor (TSHR) signaling pathway (AID 1259385); settings: TSHR-HEK293 cAMP HTRF, TSH-stimulated antagonist mode; series mostly up to 92.4 µM; further: on the % scale 0 is the no-effect control and ±100 the full control effect; nearly all actives have a fitted effect of over 20% in size
Sequence (P16473 whole entry, looked up): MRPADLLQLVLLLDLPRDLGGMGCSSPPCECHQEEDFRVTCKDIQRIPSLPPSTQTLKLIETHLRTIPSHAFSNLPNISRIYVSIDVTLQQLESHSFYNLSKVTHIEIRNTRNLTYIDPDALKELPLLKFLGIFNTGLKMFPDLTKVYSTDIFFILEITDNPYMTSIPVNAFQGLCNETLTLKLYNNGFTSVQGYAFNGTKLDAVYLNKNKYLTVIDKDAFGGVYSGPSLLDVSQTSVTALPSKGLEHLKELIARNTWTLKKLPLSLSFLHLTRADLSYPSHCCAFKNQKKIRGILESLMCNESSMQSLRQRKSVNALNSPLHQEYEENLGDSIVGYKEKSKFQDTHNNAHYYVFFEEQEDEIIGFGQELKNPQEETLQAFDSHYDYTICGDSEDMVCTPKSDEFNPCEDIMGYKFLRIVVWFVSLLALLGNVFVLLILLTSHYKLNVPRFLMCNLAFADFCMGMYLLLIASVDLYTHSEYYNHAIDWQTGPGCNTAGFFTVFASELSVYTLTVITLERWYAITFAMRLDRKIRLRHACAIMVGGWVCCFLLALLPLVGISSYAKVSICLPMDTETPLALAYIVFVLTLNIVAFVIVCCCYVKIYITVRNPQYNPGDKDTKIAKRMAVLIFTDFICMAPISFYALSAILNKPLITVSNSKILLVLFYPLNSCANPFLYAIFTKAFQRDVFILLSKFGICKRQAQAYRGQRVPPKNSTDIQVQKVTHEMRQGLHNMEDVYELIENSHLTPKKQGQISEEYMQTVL
Results filed as inconclusive are left out. The source made the active and inactive calls. Calls follow the shape of the full dose curve.
readout-type: activity change, negative = inhibition

Check out these entries, answers already filled in.
>>> reported_measurement("CN[C@@H](C)[C@H](O)c1ccccc1")
"inactive"
>>> reported_measurement("COC1CC(=C(c2cccs2)c2cccs2)C[N+](C)(C)C1 (stereo not drawn)")
"inactive"
>>> reported_measurement("COC1=CC(=O)O[C@@H](/C=C/c2ccc3c(c2)OCO3)C1")
"inactive"
>>> reported_measurement("CCCN(CCC)c1c([N+](=O)[O-])cc(C(C)C)cc1[N+](=O)[O-]")
"inactive"
>>> reported_measurement("CC(O)CN1CCN(CC(=O)[O-])CCN(CC(=O)[O-])CCN(CC(=O)[O-])CC1.[Gd+3] (stereo not drawn)")
"inactive"
>>> reported_measurement("CCCN(CCC)C(=O)Cc1c(-c2ccc(Cl)cc2)nc2ccc(Cl)cn12")
"inactive"
>>> reported_measurement("N#CC(C#N)=Cc1ccc(O)c(O)c1")
"inactive"
>>> reported_measurement("O=C=NC1CCCCC1")
"inactive"

May I ask what activity change, negative = inhibition has been recorded for `C[C@]12CC[C@H]3[C@@H](CCC4=CC(=O)CC[C@@H]43)[C@@H]1CC[C@@H]2OC(=O)CCc1ccccc1` ?
inactive

Continue with `CC(C)[C@@H](C(=O)O[C@@H](C#N)c1cccc(Oc2ccccc2)c1)c1ccc(Cl)cc1`
inactive

Continue with `O=C1CC[C@@]2(O)[C@H]3Cc4ccc(O)c5c4[C@@]2(CCN3CC2CC2)[C@H]1O5`
inactive

Continue with `O=C(O)COc1cc(Cl)c(Cl)cc1Cl`
inactive

Continue with `O=C(O)c1cc(I)cc(I)c1I`
inactive

* * *

test: qHTS assay to identify small molecule agonists of the hypoxia (HIF-1) signaling pathway - cell viability counter screen (AID 1224844); settings: HRE-bla ME-180 viability, CellTiter-Glo luminescence, 17 h; series mostly up to 76.8 µM; further: on the % scale 0 is the no-effect control and ±100 the full control effect; nearly all actives have a fitted effect of over 50% in size
Inconclusive results are not listed. Active and inactive are the calls of the source. Calls come from the whole dose curve.
Please reply with one of these outcomes: 1 (yes) for active, 0 (no) for inactive

What classification did `CC(C)(c1ccccc1)c1cc(-n2nc3ccccc3n2)c(O)c(C(C)(C)c2ccccc2)c1` end up with in this test?
0 (no)

Continue with COCc1cnc(C2=NC(C)(C(C)C)C(=O)N2)c(C(=O)O)c1 (stereo not drawn)
0 (no)

Continue with `C=CC(=O)OCC`
0 (no)

Continue with `CCCCCBr`
0 (no)

* * *

experiment: qHTS RealTime-Glo MT Cell Viability Assay in HepG2 cells - 32 hour (AID 1224877); conditions: RealTime-Glo luminescence; series mostly up to 76.8 µM; further: nearly all actives have a fitted effect of over 55% in size
Inconclusive results are not listed. Active and inactive are the calls of the source. The call rests on the fitted dose curve; in most records, active means well fitted cell-killing curve with a large enough effect in the repeat runs; inconclusive means weak or mixed curves; inactive means flat fitted curve, though single readings scatter.
Please reply with one of these outcomes: true (1) for active, false (0) for inactive

>>> class_label("CC(C)(C)N(NC(=O)c1ccc(Cl)cc1)C(=O)c1ccccc1")
"false (0)"
>>> class_label("CCCBr")
"false (0)"
>>> class_label("CN(C)c1ccc(N=O)cc1")
"true (1)"
>>> class_label("CCOP(=S)(OCC)Oc1ccc(S(C)=O)cc1 (stereo unspecified)")
"false (0)"

What classification did COc1ccc(C(O)(c2cncnc2)C2CC2)cc1 (stereo unspecified) end up with in this test?
false (0)

Continue with `C[C@]12CC[C@H]3[C@@H](CCC4=CC(=O)CC[C@@H]43)[C@@H]1CC[C@@H]2OC(=O)CCc1ccccc1`
false (0)
